System: L1210 leukemia ip in BDF1 mice, survival T/C
test.summary: NCI In Vivo Anticancer Drug Screen. Data for tumor model L1210 Leukemia (intraperitoneal) in B6D2F1 (BDF1) mice
test.conditions: endpoint: mean survival time; dose: 300.0 mg/kg/injection; schedule: Q01DX009 (ip); vehicle: Klucel (hydroxypropylcellulose) (HPC); higher = longer survival
Toxic doses and inconclusive results are not listed.
Would you kindly list T/C for each of these compounds?

IN: Which T/C is listed for `CCOC(=O)c1[nH]c(C)c(CCC(=O)OC)c1C` ?
OUT: 100 % of control

IN: Which T/C is listed for `CN(CCN(C)S(=O)(=O)c1ccccc1)S(=O)(=O)c1ccccc1` ?
OUT: 95 % of control

IN: Which T/C is listed for CCCOC(=O)C(C)(O)C(Cl)c1ccccc1 (stereo not given) ?
OUT: 104 % of control

IN: Which T/C is listed for `CN(C)/C=N/NC(=O)C(O)(c1ccccc1)c1ccccc1` ?
OUT: 95 % of control

Now for the compound whose T/C we want.
IN: Which T/C is listed for `CC(=O)N=c1ccc(C)cn1O` ?
OUT: 96 % of control

###

System: L1210 leukemia ip in BDF1 mice, survival T/C
test.summary: NCI In Vivo Anticancer Drug Screen. Data for tumor model L1210 Leukemia (intraperitoneal) in B6D2F1 (BDF1) mice
test.conditions: endpoint: mean survival time; dose: 200.0 mg/kg/injection; schedule: Q01DX009 (ip); vehicle: Klucel (hydroxypropylcellulose) (HPC); higher = longer survival
Toxic doses and inconclusive results are not listed.
Would you kindly list T/C for each of these compounds?

// solved cases for T/C follow
IN: Which T/C is listed for COc1cccc(C(=O)C(CCC#N)c2ccccc2)c1 (stereo unspecified) ?
OUT: 98 % of control

IN: Which T/C is listed for `O=C(c1ccc(F)cc1)c1ccc2ccccc2c1` ?
OUT: 95 % of control

IN: Which T/C is listed for O=C(c1ccccc1)C1C(c2ccccc2)N1C(=O)c1ccccc1 (stereo unspecified) ?
OUT: 101 % of control

IN: Which T/C is listed for `C=C(C)COP(=O)(OCC(=C)C)OCC(=C)C` ?
OUT: 100 % of control

Batch of 2 compounds: report T/C for each.
1. COc1ccc([N+](=O)[O-])cc1NC(=O)Nc1nccs1
2. COc1ccc(/C=C\C(=O)/C=C/c2ccc(OC)cc2)cc1

OUT:
1. 101 % of control
2. 98 % of control

###

Test system: L1210 leukemia ip in BDF1 mice, survival T/C
test.summary: NCI In Vivo Anticancer Drug Screen. Data for tumor model L1210 Leukemia (intraperitoneal) in B6D2F1 (BDF1) mice
test.conditions: endpoint: mean survival time; dose: 75.0 mg/kg/injection; schedule: Q01DX009 (ip); vehicle: Klucel (hydroxypropylcellulose) (HPC); higher = longer survival
Protocol: The antitumor activity of compounds was measured in mice bearing transplantable tumors. Survival or tumor size were measured and the results are expressed as the measurement made in the treated group (T) divided by the measurement made in the vehicle treated control group (C). The tumor model used in this assay is L1210 Leukemia (intraperitoneal) in B6D2F1 (BDF1) mice
Toxic doses and inconclusive results are not listed.
measured.parameter: T/C

// solved cases for T/C follow
IN: Which T/C is listed for `CN(CCN(C)S(=O)(=O)c1ccccc1)S(=O)(=O)c1ccccc1` ?
OUT: 94 % of control

IN: Which T/C is listed for `CN(C)/C=N/NC(=O)C(O)(c1ccccc1)c1ccccc1` ?
OUT: 105 % of control

IN: Which T/C is listed for `Cc1c(C)c([N+](=O)[O-])c(I)c(C)c1[N+](=O)[O-]` ?
OUT: 98 % of control

Now for the molecule whose T/C we want.
IN: Which T/C is listed for C=C1CC(C)(c2ccc(S(=O)(=O)N3CCCC3)cc2)OC1=O (centres undefined) ?
OUT: 104 % of control

###

System: L1210 leukemia ip in BDF1 mice, survival T/C
test.summary: NCI In Vivo Anticancer Drug Screen. Data for tumor model L1210 Leukemia (intraperitoneal) in B6D2F1 (BDF1) mice
test.conditions: endpoint: mean survival time; dose: 100.0 mg/kg/injection; schedule: Q04DX002 (ip); vehicle: saline with Tween-80; higher = longer survival
Toxic doses and inconclusive results are not listed.
Would you kindly list T/C for each of these compounds?

// solved cases for T/C follow
IN: Which T/C is listed for `COc1cc(/C=N/NC(=O)CCCCCCCCC(=O)N/N=C/c2ccc(O)c(OC)c2)ccc1O` ?
OUT: 101 % of control

IN: Which T/C is listed for `O=C(CCCC(=O)NO)NO` ?
OUT: 113 % of control

IN: Which T/C is listed for `C(=C(CC1CCC1)CC1CCC1)C1CCC1` ?
OUT: 96 % of control

IN: Which T/C is listed for `Cc1cc(Cl)cc(Cl)c1OCC(=O)Nc1cc(Cl)ccc1Cl` ?
OUT: 90 % of control

IN: Which T/C is listed for [NH-]C(CC(N)=O)C(=O)O.[NH-]C(CC(N)=O)C(=O)O.[Pd+2] (stereo not drawn) ?
OUT: 93 % of control

Batch of 5 compounds: report T/C for each.
1. OC1COC(c2ccccc2)OC1C(O)C1OC(c2ccccc2)OCC1O (stereo not drawn)
2. Cc1cc(OC(=O)Nc2ccccc2C(F)(F)F)cc(C)c1Cl
3. CC(=O)OC1C=C2CCCCC2(C)CC1 (stereo not drawn)
4. CCCCSP(=O)(SCCCC)N1CCCCC1
5. O=C1NC(=O)C(=Cc2ccccc2)C(=O)N1

OUT:
89 % of control
91 % of control
96 % of control
101 % of control
98 % of control

###

Would you kindly list T/C for each of these compounds?
Tested on: L1210 leukemia ip in BDF1 mice, survival T/C
test.summary: NCI In Vivo Anticancer Drug Screen. Data for tumor model L1210 Leukemia (intraperitoneal) in B6D2F1 (BDF1) mice
test.conditions: endpoint: mean survival time; dose: 100.0 mg/kg/injection; schedule: Q04DX002 (ip); vehicle: saline; higher = longer survival
Inconclusive results and toxic doses are left out.

// solved cases for T/C follow
IN: Please tell me: T/C of `NP1(N)=NP(N)(N)=NP(N)(N)=N1` , system L1210 leukemia ip in BDF1 mice, survival T/C?
OUT: 90 % of control

IN: Please tell me: T/C of `O=C(NCCl)Nc1ccccc1` , system L1210 leukemia ip in BDF1 mice, survival T/C?
OUT: 100 % of control

IN: Please tell me: T/C of `C=C(CSCC(=O)O)c1ccccc1` , system L1210 leukemia ip in BDF1 mice, survival T/C?
OUT: 105 % of control

IN: Please tell me: T/C of `C=CCNC(N)=S` , system L1210 leukemia ip in BDF1 mice, survival T/C?
OUT: 100 % of control

IN: Please tell me: T/C of `CCN(CC)C(=O)CCC(=O)O` , system L1210 leukemia ip in BDF1 mice, survival T/C?
OUT: 89 % of control

Batch of 2 compounds: report T/C for each.
1. COC(=O)COc1ccc(Cl)cc1Cl
2. C=C1CC(CCCC2CC(=C)C(=O)O2)OC1=O (configuration not stated)

OUT:
["100 % of control", "101 % of control"]

Batch of 5 compounds: report T/C for each.
1. O=P(O)(O)OCC1OC(O)(COP(=O)(O)O)C(O)C1O (configuration not stated)
2. CCCCN=C(N)CCl
3. O=C(O)C(Br)C(Br)C(=O)O (configuration not stated)
4. Cc1c[nH]c(=O)[nH]1
5. CN(N=O)C(=O)N[C@@H](C=O)[C@@H](O)[C@H](O)[C@H](O)CO

OUT:
1. 100 % of control
2. 124 % of control
3. 92 % of control
4. 109 % of control
5. 120 % of control

###

Would you kindly list T/C for each of these molecules?
Test system: L1210 leukemia ip in BDF1 mice, survival T/C
test.summary: NCI In Vivo Anticancer Drug Screen. Data for tumor model L1210 Leukemia (intraperitoneal) in B6D2F1 (BDF1) mice
test.conditions: endpoint: mean survival time; dose: 100.0 mg/kg/injection; schedule: Q01DX009 (ip); vehicle: other; higher = longer survival
Toxic doses and inconclusive results are not listed.

IN: Which T/C is listed for `COc1ccc2[nH]ccc2c1` ?
OUT: 90 % of control

IN: Which T/C is listed for `CSc1ccc(NC(=O)Nc2cc(C)ccc2N=Nc2ccc(C)cc2)cc1` ?
OUT: 89 % of control

IN: Which T/C is listed for `O=C(CNC(=O)c1ccccc1)Oc1c(Cl)c(Cl)c(Cl)c(Cl)c1Cl` ?
OUT: 104 % of control

Now for the molecule whose T/C we want.
IN: Which T/C is listed for `Cc1ccc2cccc3c(=O)c4cccc5cccc(sc1c23)c54` ?
OUT: 92 % of control
